subject_of_test: DNA topoisomerase 2-alpha (Homo sapiens, UniProt P11388)
Sequence (P11388 whole entry): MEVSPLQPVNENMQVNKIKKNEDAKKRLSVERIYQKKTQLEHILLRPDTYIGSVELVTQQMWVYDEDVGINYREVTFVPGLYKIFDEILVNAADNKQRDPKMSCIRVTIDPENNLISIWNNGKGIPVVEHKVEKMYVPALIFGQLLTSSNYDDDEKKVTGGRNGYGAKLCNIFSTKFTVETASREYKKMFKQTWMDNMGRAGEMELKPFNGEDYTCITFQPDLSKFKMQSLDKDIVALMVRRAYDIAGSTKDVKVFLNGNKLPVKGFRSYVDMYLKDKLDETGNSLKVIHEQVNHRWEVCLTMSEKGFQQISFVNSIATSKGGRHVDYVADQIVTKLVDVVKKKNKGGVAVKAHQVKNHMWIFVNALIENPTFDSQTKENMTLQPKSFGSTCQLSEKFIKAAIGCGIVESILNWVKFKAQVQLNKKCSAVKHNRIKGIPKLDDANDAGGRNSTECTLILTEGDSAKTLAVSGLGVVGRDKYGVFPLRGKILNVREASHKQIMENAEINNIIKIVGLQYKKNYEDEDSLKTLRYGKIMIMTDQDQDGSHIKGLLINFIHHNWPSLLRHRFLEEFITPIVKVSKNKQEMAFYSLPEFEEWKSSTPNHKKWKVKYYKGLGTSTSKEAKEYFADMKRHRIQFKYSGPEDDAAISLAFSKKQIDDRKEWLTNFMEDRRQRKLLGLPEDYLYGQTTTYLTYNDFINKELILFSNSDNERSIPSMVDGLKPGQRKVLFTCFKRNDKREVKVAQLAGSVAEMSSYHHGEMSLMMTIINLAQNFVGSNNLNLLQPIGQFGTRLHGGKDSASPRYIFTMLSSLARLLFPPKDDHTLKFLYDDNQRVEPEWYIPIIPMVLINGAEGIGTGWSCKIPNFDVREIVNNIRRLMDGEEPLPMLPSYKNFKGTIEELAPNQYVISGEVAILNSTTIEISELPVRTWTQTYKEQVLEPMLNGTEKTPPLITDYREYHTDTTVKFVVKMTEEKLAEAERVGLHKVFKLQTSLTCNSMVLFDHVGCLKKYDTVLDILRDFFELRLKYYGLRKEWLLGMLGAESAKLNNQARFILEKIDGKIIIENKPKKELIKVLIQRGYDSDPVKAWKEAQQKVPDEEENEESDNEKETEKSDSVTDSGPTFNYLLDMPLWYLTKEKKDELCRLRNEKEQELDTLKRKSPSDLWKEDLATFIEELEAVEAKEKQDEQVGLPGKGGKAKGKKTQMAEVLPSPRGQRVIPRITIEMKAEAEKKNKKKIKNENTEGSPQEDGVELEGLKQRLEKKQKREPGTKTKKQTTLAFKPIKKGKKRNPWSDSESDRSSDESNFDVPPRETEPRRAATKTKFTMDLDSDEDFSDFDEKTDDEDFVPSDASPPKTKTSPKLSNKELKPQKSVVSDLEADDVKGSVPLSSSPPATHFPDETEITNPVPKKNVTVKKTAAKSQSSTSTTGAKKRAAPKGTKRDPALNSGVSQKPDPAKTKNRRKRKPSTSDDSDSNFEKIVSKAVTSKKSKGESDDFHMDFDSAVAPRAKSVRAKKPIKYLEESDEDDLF
method: Inhibition of human DNA topoisomerase IIalpha assessed as reduction in enzyme-catalyzed supercoiling of relaxed circular pBR322 DNA by measuring linear DNA level at 31.5 uM after 60 mins by agarose gel electrophoresis
Design: scale not given: the % may be the effect or the level left
measurement_kind: Activity (%)
Expressed in %, but write only the number.

# count of solved cases: 3
O=c1nc(SCc2ccccc2)nc(SCc2ccccc2F)[nH]1	2.3
COc1cc([C@@H]2c3cc4c(cc3[C@@H](O[C@@H]3O[C@@H]5CO[C@@H](C)O[C@H]5[C@H](O)[C@H]3O)[C@H]3COC(=O)[C@H]23)OCO4)cc(OC)c1O	34.3
O=c1nc(SCc2ccccc2)nc(SCc2cccc(Cl)c2)[nH]1	1.2

Could you now consider this next compound?
State the recorded Activity for this entry: CC(C(C)N1CC(=O)NC(=O)C1)N1CC(=O)NC(=O)C1 (centres undefined)
2.51
